Biological target: KRas G12C (Homo sapiens, UniProt P01116, C118S/C51S/C80L/G12C)
Test: KRas G12C Modification Assay (LCMS detection of covalent adduct)
Format: binding
Settings: normalized percent of control; tested at 5 μM concentration for 3 hours
Description: A 10 μL aliquot of each protein solution was then transferred to a 384 well microtiter plate. Initial compound stocks were generated at fifty times their desired final assay concentration in DMSO. […] Final data analysis was a multistep process in the Spotfire® data analysis software package. Briefly, each protein mass was calculated as a percent of the total signal of that sample, that percentage was then normalized to the percentage of signal of the protein in the absence of reactive compounds. […]
observable: POC

1) C=CC(=O)N1CCN(c2nc(OC[C@H]3CN(C)CCO3)nc3c2CCN(c2cccc4ccccc24)C3)CC1CC#N (stereo partly shown) [Example 441]
C (“C”>50% POC)
2) C=CC(=O)N1CCN(c2nc(OC[C@@H]3CCCN3C)nc3c2CCN(c2ccc(F)c(C)c2C)C3)C[C@@H]1CC#N [Example 423]
C (“C”>50% POC)
3) C=CC(=O)N1CCN(c2nc(O[C@H](C)CN3CCOCC3)nc3c2CCN(c2cc(O)cc4ccccc24)C3)CC1 [Example 56]
C (“C”>50% POC)

----------
system: NCI-H358 cells (express KRas G12C), Phospho-ERK; assay: Cellular inhibition of KRas G12C: Phospho-ERK in NCI-H358 cells; format: cell-based; details: Homo sapiens, NCI-H358, 3 h, pERK(Thr202/Tyr204) normalized with GAPDH; NCI-H358 cells; 3 hours; read-out: IC50
pIC50: −log10 of the molar value.
observable: pIC50

1. C=CC(=O)N1CCN(c2nc(OCCN(C)C)nc3c2CCN(c2ccccc2C(F)(F)F)C3)CC1CC#N (stereo not shown)
6.00 to 10.00
2. C=CC(=O)N1CCN(c2nc(OC[C@@H]3CCCN3C)nc3c2CCN(c2ccccc2C#N)C3)C[C@@H]1CC#N
< 6.00
3. C=CC(=O)N1CCN(c2nc(OC[C@@H]3C[C@@H](OC)CN3C)nc3c2CCN(c2cc(OC)cc4ccccc24)C3)CC1
< 6.00
4. C=CC(=O)N1CCN(c2nc(O[C@H](C)CN(C)C)nc3c2CCN(c2cccc4ccccc24)C3)CC1CC#N (stereo partly shown)
< 6.00
5. C#CC[C@H]1CN(c2nc(OC[C@@H]3CCCN3C)nc3c2CCN(c2cccc4ccccc24)C3)CCN1C(=O)C=C
6.00 to 10.00
6. C=CC(=O)N1CCN(c2nc(OC[C@@H]3CCCN3C)nc3c2CCN(c2cccc(F)c2C(F)(F)F)C3)C[C@@H]1CC#N
6.00 to 10.00
7. C=CC(=O)N1CCN(c2nc(OC[C@@H]3CCCN3C)nc3c2CCN(c2cccc(C)c2C(F)(F)F)C3)CC1CC#N (stereo partly shown)
6.00 to 10.00

----------
# pIC50 per record follows
System: NCI-H358 cells (express KRas G12C), Phospho-ERK
Assay: Cellular inhibition of KRas G12C: Phospho-ERK in NCI-H358 cells
Type: cell-based
Conditions: Homo sapiens, NCI-H358, 3 h, pERK(Thr202/Tyr204) normalized with GAPDH; NCI-H358 cells; 3 hours; read-out: IC50
Protocol: The cellular inhibition of KRAs G12C by exemplary compounds of the present invention was determined by measuring the amount of a downstream marker of KRas activity, phosphorylated ERK (“Phospho-ERK”). […] The amount Phospho-ERK was determined using an antibody specific for the phosphorylated form of ERK and compared to the amount of GAPDH. […] The pERK(Thr202/Tyr204) signal was normalized with the GAPDH signal and percent of DMSO control values were calculated. […]
pIC50: −log10 of the molar value.
observable: pIC50

1) C=CC(=O)N1CCN(c2nc(OCC3CCN(CCOC)C3)nc3c2CCN(c2cc(O)cc4ccccc24)C3)CC1 (stereo not drawn)
6.00 to 10.00
2) C=CC(=O)N1CCN(c2nc(OC[C@@H]3CCCN3C(C)C)nc3c2CCN(c2cccc4ccccc24)C3)C[C@@H]1CC#N
6.00 to 10.00
3) C=CC(=O)N1CCN(c2nc(OC[C@H](O)CN3CCOCC3)nc3c2CCN(c2cc(O)cc4ccccc24)C3)CC1 (single isomer, unassigned)
< 6.00

----------
system: NCI-H358 cells (express KRas G12C), Phospho-ERK; experiment: Cellular inhibition of KRas G12C: Phospho-ERK in NCI-H358 cells; format: cell-based; conditions: Homo sapiens, NCI-H358, 3 h, pERK(Thr202/Tyr204) normalized with GAPDH; NCI-H358 cells; 3 hours; read-out: IC50
observable: IC50

1. C=CC(=O)N1CCN(c2nc(O[C@@H]3CCCN(C)C3)nc3c2CCN(c2cc(O)cc4ccccc24)C3)CC1
0.1 to 1000 nM
2. C=CC(=O)N1CCN(c2nc(OC[C@@H]3C[C@@H](OC)CN3C)nc3c2CCN(c2cccc4ccccc24)C3)CC1CC#N (stereo partly drawn)
0.1 to 1000 nM
3. C=CC(=O)N1CCN(c2nc(OC[C@@H]3CCCN3C)nc3c2CCN(c2cccc4ccc(Cl)cc24)C3)CC1CC#N (stereo partly drawn)
0.1 to 1000 nM
4. C=CC(=O)N1CCN(c2nc(OC[C@@H]3COCCN3C)nc3c2CCN(c2cccc4ccccc24)C3)CC1CC#N (stereo partly drawn)
0.1 to 1000 nM
5. C=CC(=O)N1CCN(c2nc(OC[C@@H]3CCCN3C)nc3c2CCN(c2cccc4ccc(F)cc24)C3)C[C@@H]1CC#N
0.1 to 1000 nM
6. C=CC(=O)N1CCN(c2nc(OCCN3CCC(F)C3)nc3c2CCN(c2cc(O)cc4ccccc24)C3)CC1 (stereo not drawn)
> 1000 nM

----------
tested on: NCI-H358 cells (express KRas G12C), Phospho-ERK; test: Cellular inhibition of KRas G12C: Phospho-ERK in NCI-H358 cells; type: cell-based; conditions: Homo sapiens, NCI-H358, 3 h, pERK(Thr202/Tyr204) normalized with GAPDH; NCI-H358 cells; 3 hours; read-out: IC50
pIC50: −log10 of the molar value.
observable: pIC50

1. C=CC(=O)N1CCN(c2nc(N3CC(N(C)C)C3)nc3c2CCN(c2cc(O)cc4ccccc24)C3)CC1 [Example 128]
< 6.00
2. C=CC(=O)N1CCN(c2nc(OC[C@@H]3CCCN3C)nc3c2CCN(c2cncc(F)c2C(F)(F)F)C3)C[C@@H]1CC#N [Example 383]
6.00 to 10.00
3. C=CC(=O)N1CCN(c2nc(OC(CO)CN3CCOCC3)nc3c2CCN(c2cc(O)cc4ccccc24)C3)CC1 (centres unmarked) [Example 217]
< 6.00
4. C=CC(=O)N1CCN(c2nc(OCCN(CC)CC)nc3c2CCN(c2ccccc2C(F)(F)F)C3)CC1CC#N (centres unmarked) [Example 284]
6.00 to 10.00
5. C=CC(=O)N1CCN(c2nc(OC[C@H]3CCCN3CC)nc3c2CCN(c2cccc4ccccc24)C3)C[C@@H]1CC#N [Example 334]
6.00 to 10.00
6. C/C=C/C(=O)N1CCN(c2nc(OC[C@@H]3CCCN3C)nc3c2CCN(c2cccc4ccccc24)C3)CC1CC#N (some centres unmarked) [Example 263]
6.00 to 10.00
7. C=CC(=O)N1CCN(c2nc(OC[C@@H]3CCCN3C)nc3c2CCN(c2cnccc2OC)C3)C[C@@H]1CC#N [Example 340]
< 6.00
8. C=CC(=O)N1CCN(c2nc(OCCCN3CCCOCC3)nc3c2CCN(c2cc(O)cc4ccccc24)C3)CC1 [Example 101]
6.00 to 10.00
9. C=CC(=O)N1CCN(c2nc(OC[C@@H]3CCCN3CC(=O)N(C)C)nc3c2CCN(c2cccc4ccccc24)C3)C[C@@H]1CC#N [Example 401]
6.00 to 10.00
10. C=CC(=O)N1CCN(c2nc(OCCN(C)C)nc3c2CCN(c2cc(O)cc4ccccc24)C3)C(CO)C1 (centres unmarked) [Example 53]
< 6.00
11. C=CC(=O)N1CCN(c2nc(OC[C@H]3CCCN3C)nc3c2CCN(c2ccc(F)c4ccccc24)C3)C[C@@H]1CC#N [Example 318]
6.00 to 10.00
12. CN1CCC[C@H]1COc1nc2c(c(N3CCN(C(=O)/C=C/CN4CCCCC4)[C@@H](CC#N)C3)n1)CCN(c1cccc3ccccc13)C2 [Example 236]
6.00 to 10.00
13. C=CC(=O)N1CCN(c2nc(OC[C@@H]3CCCN3C)nc3c2CCN(c2ccc(F)cc2C(F)(F)F)C3)CC1CC#N (some centres unmarked) [Example 276]
6.00 to 10.00
14. C=C(C)C(=O)N1CCN(c2nc(OC[C@@H]3CCCN3C)nc3c2CCN(c2cccc4ccccc24)C3)CC1CC#N (some centres unmarked) [Example 261]
< 6.00
